target desc: EGLN1
protocol text: cell-based or functional assay
Where no end group is shown, it is not given here.
Lab note: cut-off is 50%. Strictly less in Activity (%)* is criterion met. Exactly 50% or more is criterion not met.

Please review the following examples before continuing.
{"binder": "DTDLDSEALAPYIPADDDFQ (not fully specified; printed as DTDLDSEALApYIPADDDFQ) [DTDLDSEALApYIPADDDFQ]", "label class": "criterion met"}
{"binder": "DTDLDLEMLQPYIPMDDDFQ (not fully specified; printed as DTDLDLEMLQpYIPMDDDFQ) [DTDLDLEMLQpYIPMDDDFQ]", "label class": "criterion met"}
{"binder": "DTDLDVEAYAPYIPADDDFQ (not fully specified; printed as DTDLDVEAYApYIPADDDFQ) [DTDLDVEAYApYIPADDDFQ]", "label class": "criterion met"}

Next binder, please.
Threshold test, Activity (%)* < 50%: DTDLDIEAIAPYIPADDDFQ [DTDLDIEAIApYIPADDDFQ]
criterion not met

Values from patent US20080113383A1
